experiment: in vitro; conditions: cell culture
measurement_label: MCC

Task: May I ask what MCC has been recorded for `CCCC(=O)O` ?
Result: > 3 mM
